Each item that follows carries a reported EC50.
# test_system: cynomolgus monkey PCSK9 (cynomolgus monkey, UniProt A0A7N9D9N8 150-747)
# protocol_description: FRET, competitor EGFA peptide
Quick note: unit goes after the number.

Recorded EC50, per entry:
binder	EC50
2382E05 (designed binder, Anti-PCSK9 Adnectin, His6-tagged) MGVSDVPRDLEVVAATPTSLLISWDAPAEGGYGYYRITYGETGGNSPVQEFTVPVSKGTATISGLKPGVDYTITVYAVEFDFPGAGYYHRPISINYRTEIDKPSQHHHHHH	0.0126 µM
2382G04 (designed binder, Anti-PCSK9 Adnectin, His6-tagged) MGVSDVPRDLEVVAATPTSLLISWDAPAGGGYGYYRITYGETGGNSPVQEFTVPSSKGTATISGLKPGVDYTITVYAVEFDFPGAGYYHRPISINYRTEIDKPSQHHHHHH	0.0201 µM
2382D03 (designed binder, Anti-PCSK9 Adnectin, His6-tagged) MGVSDVPRDLEVVAATPTSLLISWDAPADEAYGYYRITYGETGGNSPVQEFTVPVSKGTATISGLKPGVDYTITVYAVEFDFPGAGYYHRPISINYRTEIDKPSQHHHHHH	0.0118 µM
2381F11 (designed binder, Anti-PCSK9 Adnectin, His6-tagged) MGVSDVPRDLEVVAATPTSLLISWDAPADGGYGYYRITYGETGGNSPVQEFTVPVSKSTATISGLKPGVDYTITVYAVEYTFPGAGYYHRPISINYRTEIDKPSQHHHHHH	0.0265 µM
1813E02 (designed binder, Anti-PCSK9 Adnectin, His6-tagged) MGVSDVPRDLEVVAATPTSLLISWSPPANGYGYYRITYGETGGNSPVQEFTVPVGRGTATISGLKPGVDYTITVYAVEYTYKGSGYYHRPISINYRTEIDKPSQHHHHHH	0.119 µM
2382C09 (designed binder, Anti-PCSK9 Adnectin, His6-tagged) MGVSDVPRDLEVVAATPTSLLISWDAPAEGYGYYRITYGETGGNSPVQEFTVPVSKGTATISGLKPGVDYTITVYAVEFDFPGSGYYHRPISINYRTEIDKPSQHHHHHH	0.0239 µM

Challenge: Report EC50 for 2381B04 (designed binder, Anti-PCSK9 Adnectin, His6-tagged) MGVSDVPRDLEVVAATPTSLLISWEPFSRLPGGGEYYRITYGETGGNSPLQQFTVPGSKGTATISGLKPGVDYTITVYAVEYPYEHSGYYHRPISINYRTEIDKPSQHHHHHH please.
Response given: 0.0173 µM

Challenge: Now this one: 2382E03 (designed binder, Anti-PCSK9 Adnectin, His6-tagged) MGVSDVPRDLEVVAATPTSLLISWDAPAGDGYGYYRITYGETGGNSPVQEFTVPVSKGTATISGLKPGVDYTITVYAVEFDFPGAGYYHRPISINYRTEIDKPSQHHHHHH
Response given: 0.0108 µM

Challenge: Now this one: 2381D04 (designed binder, Anti-PCSK9 Adnectin, His6-tagged) MGVSDVPRDLEVVAATPTSLLISWEPFSRLPGGGEYYRITYGETGGNSPLQQFTVPGSKGTATISGLKPGVDYTITVYAVEFPYDHSGYYHRPISINYRTEIDKPSQHHHHHH
Response given: 0.012 µM

Challenge: Now this one: 2381B08 (designed binder, Anti-PCSK9 Adnectin, His6-tagged) MGVSDVPRDLEVVAATPTSLLISWDAPADGGYGYYRITYGETGGNSPVQEFTVPSSKGTATISGLKPGVDYTITVYAVEYTFPGAGYYHRPISINYRTEIDKPSQHHHHHH
Response given: 0.0271 µM

Challenge: Now this one: 2381H09 (designed binder, Anti-PCSK9 Adnectin, His6-tagged) MGVSDVPRDLEVVAATPTSLLISWDAPAGGGYGYYRITYGETGGNSPVQEFTVPVSKGTATISGLKPGVDYTITVYAVEFDFVGAGYYHRPISINYRTEIDKPSQHHHHHH
Response given: 0.0202 µM
